Target: PI3K δ (Homo sapiens)
Construct: purchased Upstate / Millipore Corporation
Test: PI 3-Kinase (human) HTRF assay, PI3K δ
Type: biochemical
Settings: read-out: PI3K δ IC50
pIC50: −log10 of the molar value.
pIC50 overview

>  <Compound>
Nc1nc2cc(-c3ccc4ncc(C(=O)N5CC(F)C5)n4c3)ccc2o1 [Compound 468]

>  <System>
PI3K δ (Homo sapiens)

>  <Measured Quantity>
pIC50

>  <Assay Result>
< 5.00

$$$$
>  <Compound>
O=C(c1cnc2ccc(-c3cnc(Cl)c(NS(=O)(=O)c4cccc(F)c4)c3)cn12)N1CCOCC1 [Compound 458]

>  <System>
PI3K δ (Homo sapiens)

>  <Measured Quantity>
pIC50

>  <Assay Result>
> 7.00

$$$$
>  <Compound>
Nc1nc2cc(-c3ccc4ncc(N5CC[C@H](O)C5)nc4c3)ccc2o1 [Compound 262]

>  <System>
PI3K δ (Homo sapiens)

>  <Measured Quantity>
pIC50

>  <Assay Result>
< 5.00

$$$$
>  <Compound>
COc1ncc(-c2ccc3ncc(C(=O)N4CCOCC4)n3c2)cc1NS(=O)(=O)c1ccccc1 [Compound 420]

>  <System>
PI3K δ (Homo sapiens)

>  <Measured Quantity>
pIC50

>  <Assay Result>
> 6.00

$$$$
>  <Compound>
COc1nc(-c2ccc3oc(N)nc3c2)cnc1N [Compound 238]

>  <System>
PI3K δ (Homo sapiens)

>  <Measured Quantity>
pIC50

>  <Assay Result>
> 5.00

$$$$

-- ask Return pIC50 for the following compound: Nc1nc2ccc(-c3cc(F)c4ncc(C(=O)N5CCOCC5)n4c3)cc2o1 [Compound 439]
-- reply < 5.00

-- ask Return pIC50 for the following compound: Nc1nc2cc(-c3ccc4ncc(C(=O)N5CCOCC5)n4c3)ccc2o1 [Compound 54]
-- reply > 5.00

-- ask Return pIC50 for the following compound: C[C@H](N)C(=O)N1CCN(c2cnc3ccc(-c4ccc5oc(N)nc5c4)cc3n2)CC1 [Compound 207]
-- reply > 6.00

----------
Target: PI3K β (p110β/p85α) (Homo sapiens)
Construct: purchased Upstate / Millipore Corporation
Test: PI 3-Kinase (human) HTRF assay, PI3K β
Type: biochemical
Conditions: Table 4 (PI3K α inhibitors); read-out: PI3K β IC50
Measured Quantity: IC50

-- ask Return IC50 for the following compound: C[C@@H]1CN(C2CN(c3cnc4ccc(-c5ccc6oc(N)nc6c5)nc4n3)C2)CCN1C
-- reply > 10 µM

-- ask Return IC50 for the following compound: C[C@H](N)C(=O)N1CCN(c2cnc3ccc(-c4ccc5oc(N)nc5c4)nc3c2)CC1
-- reply < 1 µM

-- ask Return IC50 for the following compound: Nc1nc2cc(-c3ccc4ncc(N5CC(N6CCNCC6)C5)nc4n3)ccc2o1
-- reply > 10 µM

----------
Biological target: PI3K γ (p110γ) (Homo sapiens)
Construct: purchased Upstate / Millipore Corporation
Sequence (P48736 whole entry): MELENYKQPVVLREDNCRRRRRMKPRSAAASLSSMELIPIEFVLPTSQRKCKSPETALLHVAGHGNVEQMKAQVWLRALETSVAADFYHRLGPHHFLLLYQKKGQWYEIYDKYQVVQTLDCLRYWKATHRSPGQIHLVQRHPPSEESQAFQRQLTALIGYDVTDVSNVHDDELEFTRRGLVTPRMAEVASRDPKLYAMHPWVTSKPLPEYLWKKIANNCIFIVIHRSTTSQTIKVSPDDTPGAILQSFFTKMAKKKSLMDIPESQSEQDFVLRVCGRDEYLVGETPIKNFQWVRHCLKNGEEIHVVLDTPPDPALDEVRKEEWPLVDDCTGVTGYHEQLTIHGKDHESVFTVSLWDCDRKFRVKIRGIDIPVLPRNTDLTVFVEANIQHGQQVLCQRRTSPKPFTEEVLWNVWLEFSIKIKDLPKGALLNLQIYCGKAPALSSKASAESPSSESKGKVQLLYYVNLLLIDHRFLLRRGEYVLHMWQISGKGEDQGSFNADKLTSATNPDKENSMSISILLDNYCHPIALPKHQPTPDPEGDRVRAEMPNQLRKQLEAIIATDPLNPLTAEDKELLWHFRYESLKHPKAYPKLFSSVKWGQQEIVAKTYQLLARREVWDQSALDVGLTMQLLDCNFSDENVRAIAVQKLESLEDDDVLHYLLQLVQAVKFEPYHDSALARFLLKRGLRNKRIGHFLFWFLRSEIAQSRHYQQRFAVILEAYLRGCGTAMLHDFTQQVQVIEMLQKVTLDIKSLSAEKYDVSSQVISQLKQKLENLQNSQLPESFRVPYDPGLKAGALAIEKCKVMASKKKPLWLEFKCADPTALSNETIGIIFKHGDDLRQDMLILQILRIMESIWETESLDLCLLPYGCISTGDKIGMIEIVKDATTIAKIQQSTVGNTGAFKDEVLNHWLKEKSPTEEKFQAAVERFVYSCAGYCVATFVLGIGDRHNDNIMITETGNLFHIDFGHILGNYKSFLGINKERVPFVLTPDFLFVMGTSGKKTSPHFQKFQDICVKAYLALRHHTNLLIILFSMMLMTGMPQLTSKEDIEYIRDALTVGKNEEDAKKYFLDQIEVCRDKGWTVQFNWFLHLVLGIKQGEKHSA
Assay: PI 3-Kinase (human) HTRF assay, PI3K γ
Type: biochemical
Conditions: read-out: PI3K γ IC50
pIC50: −log10 of the molar value.
pIC50 overview

Check out these entries, answers already filled in.
>  <Line Notation>
Nc1nc2cc(-c3ccc4ncc(C(=O)N5CCN(CCO)CC5)n4c3)ccc2o1

>  <pIC50>
> 5.00

$$$$
>  <Line Notation>
Nc1nsc2ccc(-c3ccc4nccc(-c5ccncc5)c4c3)cc12

>  <pIC50>
< 5.00

$$$$
>  <Line Notation>
CN1CCN(c2cc(-c3ccnc4ccc(-c5ccc6oc(N)nc6c5)cc34)ccn2)CC1

>  <pIC50>
> 7.00

$$$$

We next turn to a different molecule, shown below.
-- ask Return pIC50 for the following molecule: O=C(c1cnc2ccc(-c3cncc4[nH]ncc34)cn12)N1CCOCC1
-- reply < 5.00

----------
Molecular target: PI3K β (p110β/p85α) (Homo sapiens, UniProt P42338)
Construct: purchased Upstate / Millipore Corporation
Sequence (P42338 whole entry): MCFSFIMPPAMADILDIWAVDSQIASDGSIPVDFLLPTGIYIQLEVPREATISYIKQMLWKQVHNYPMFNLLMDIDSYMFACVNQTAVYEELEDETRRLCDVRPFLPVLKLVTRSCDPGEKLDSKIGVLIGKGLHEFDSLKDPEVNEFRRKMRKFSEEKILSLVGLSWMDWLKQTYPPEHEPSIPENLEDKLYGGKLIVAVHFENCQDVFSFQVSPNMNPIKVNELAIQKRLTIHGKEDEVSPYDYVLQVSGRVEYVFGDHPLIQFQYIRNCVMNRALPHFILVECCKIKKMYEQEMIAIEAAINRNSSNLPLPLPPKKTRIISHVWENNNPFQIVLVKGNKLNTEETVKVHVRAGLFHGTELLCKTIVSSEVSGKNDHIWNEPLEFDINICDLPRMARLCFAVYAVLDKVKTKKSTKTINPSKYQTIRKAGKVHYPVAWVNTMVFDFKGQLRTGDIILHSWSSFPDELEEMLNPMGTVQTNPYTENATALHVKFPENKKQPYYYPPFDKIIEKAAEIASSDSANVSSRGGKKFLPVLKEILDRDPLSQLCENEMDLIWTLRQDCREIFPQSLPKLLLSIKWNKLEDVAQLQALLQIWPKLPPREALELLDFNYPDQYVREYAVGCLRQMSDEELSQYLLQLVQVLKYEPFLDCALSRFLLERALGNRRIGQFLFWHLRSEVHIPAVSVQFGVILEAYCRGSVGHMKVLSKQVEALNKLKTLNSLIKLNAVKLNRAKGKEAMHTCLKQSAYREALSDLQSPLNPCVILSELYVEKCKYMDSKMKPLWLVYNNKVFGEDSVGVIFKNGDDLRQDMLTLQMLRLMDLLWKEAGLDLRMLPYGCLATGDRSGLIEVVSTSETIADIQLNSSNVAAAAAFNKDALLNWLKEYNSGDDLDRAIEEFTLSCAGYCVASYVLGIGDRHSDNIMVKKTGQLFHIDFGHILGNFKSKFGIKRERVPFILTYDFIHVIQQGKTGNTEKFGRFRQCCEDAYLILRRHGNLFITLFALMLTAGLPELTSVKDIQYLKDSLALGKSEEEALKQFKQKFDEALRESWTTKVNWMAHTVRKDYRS
Sequence (P27986 whole entry partner): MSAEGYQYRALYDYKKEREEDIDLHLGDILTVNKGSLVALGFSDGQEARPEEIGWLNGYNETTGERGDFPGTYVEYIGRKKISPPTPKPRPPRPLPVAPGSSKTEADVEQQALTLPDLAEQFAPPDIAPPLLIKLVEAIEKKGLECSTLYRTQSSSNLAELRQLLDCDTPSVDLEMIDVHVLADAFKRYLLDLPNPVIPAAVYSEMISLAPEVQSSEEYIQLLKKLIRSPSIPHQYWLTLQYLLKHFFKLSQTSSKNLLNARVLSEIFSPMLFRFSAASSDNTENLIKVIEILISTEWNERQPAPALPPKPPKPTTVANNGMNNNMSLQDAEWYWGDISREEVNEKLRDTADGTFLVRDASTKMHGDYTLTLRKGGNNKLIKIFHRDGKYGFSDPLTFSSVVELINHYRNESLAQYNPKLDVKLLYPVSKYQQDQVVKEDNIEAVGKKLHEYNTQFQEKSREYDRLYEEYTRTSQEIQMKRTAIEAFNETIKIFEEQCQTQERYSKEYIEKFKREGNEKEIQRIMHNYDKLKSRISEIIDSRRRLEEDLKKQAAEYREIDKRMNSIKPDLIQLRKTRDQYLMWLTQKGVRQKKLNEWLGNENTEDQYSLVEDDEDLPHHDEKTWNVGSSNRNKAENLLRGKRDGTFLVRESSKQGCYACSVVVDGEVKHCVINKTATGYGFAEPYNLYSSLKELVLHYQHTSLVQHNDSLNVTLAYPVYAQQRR
Assay: PI 3-Kinase (human) HTRF assay, PI3K β
Format: biochemical
Details: read-out: PI3K β IC50
pIC50: −log10 of the molar value.
Measured Quantity: pIC50

>  <Line Notation>
CC(C)Oc1nc(-c2ccc3oc(N)nc3c2)cnc1N

>  <System>
PI3K β (p110β/p85α) (Homo sapiens, UniProt P42338)

>  <Measured Quantity>
pIC50

>  <Assay Result>
> 5.00

$$$$
>  <Line Notation>
CC(C)N1CCN(C(=O)c2cnc3ccc(-c4ccc5oc(N)nc5c4)cn23)CC1

>  <System>
PI3K β (p110β/p85α) (Homo sapiens, UniProt P42338)

>  <Measured Quantity>
pIC50

>  <Assay Result>
> 5.00

$$$$

-- ask Return pIC50 for the following compound: Nc1nc2cc(-c3ccc4ncc(N5CCC(O)CC5)nc4c3)ccc2o1
-- reply > 5.00

-- ask Return pIC50 for the following compound: NCC(=O)N1CCN(c2cnc3ccc(-c4ccc5oc(N)nc5c4)cc3n2)CC1
-- reply > 6.00

-- ask Return pIC50 for the following compound: Nc1nc2cc(-c3ccc4ncc(C(=O)NCCCN5CCOCC5)n4c3)ccc2o1
-- reply > 6.00

-- ask Return pIC50 for the following compound: Nc1nc2cc(-c3ccc4ncc(N5CCC(N)CC5)nc4c3)ccc2o1
-- reply > 6.00

-- ask Return pIC50 for the following compound: CN1CCN(CCCn2cnc3ccc(-c4ccc5oc(N)nc5c4)cc3c2=O)CC1
-- reply < 5.00

-- ask Return pIC50 for the following compound: Nc1nc2cc(-c3ccc4ncc(N5CC(O)C5)nc4c3)ccc2o1
-- reply > 6.00

-- ask Return pIC50 for the following compound: Nc1n[nH]c2cc(-c3ccc4ncc(C(=O)N5CCOCC5)n4c3)ccc12
-- reply < 5.00

----------
Molecular target: PI3K β (p110β/p85α) (Homo sapiens, UniProt P42338)
Construct: purchased Upstate / Millipore Corporation
Assay: PI 3-Kinase (human) HTRF assay, PI3K β
Assay type: biochemical
Conditions: read-out: PI3K β IC50
Measured Quantity: IC50

Check out these entries, answers already filled in.
>  <Compound>
C[C@@H]1CN(C2CN(c3cnc4ccc(-c5ccc6oc(N)nc6c5)cc4n3)C2)CCN1

>  <IC50>
< 10 µM

$$$$
>  <Compound>
CC(=O)NC1CCN(C(=O)c2cnc3ccc(-c4ccc5oc(N)nc5c4)cn23)CC1

>  <IC50>
< 10 µM

$$$$
>  <Compound>
CN(C)CC(=O)N1CCN(c2cnc3ccc(-c4ccc5oc(N)nc5c4)cc3n2)CC1 [Compound 139]

>  <IC50>
< 1 µM

$$$$
>  <Compound>
CNC(=O)C1CN(c2cnc3ccc(-c4ccc5oc(N)nc5c4)cc3n2)C1

>  <IC50>
< 0.1 µM

$$$$

-- ask Return IC50 for the following compound: Nc1nc2cc(-c3ccc4nccc(-c5cn[nH]c5)c4c3)ccc2o1
-- reply < 0.1 µM

-- ask Return IC50 for the following compound: Cc1c(-c2ccc3oc(N)nc3c2)ccc2ncc(N3CC(N4CCOCC4)C3)nc12
-- reply > 10 µM

-- ask Return IC50 for the following compound: Nc1nc2cc(-c3ccc4ncc(C(=O)N5C6CCC5COC6)n4c3)ccc2o1
-- reply > 10 µM

-- ask Return IC50 for the following compound: CC(C)N1CCN(c2cnc3ccc(-c4ccc5oc(N)nc5c4)cc3n2)CC1
-- reply < 0.1 µM

----------
pIC50 overview
Target: PI3K δ (Homo sapiens, UniProt O00329)
Construct: purchased Upstate / Millipore Corporation
Sequence (O00329 whole entry): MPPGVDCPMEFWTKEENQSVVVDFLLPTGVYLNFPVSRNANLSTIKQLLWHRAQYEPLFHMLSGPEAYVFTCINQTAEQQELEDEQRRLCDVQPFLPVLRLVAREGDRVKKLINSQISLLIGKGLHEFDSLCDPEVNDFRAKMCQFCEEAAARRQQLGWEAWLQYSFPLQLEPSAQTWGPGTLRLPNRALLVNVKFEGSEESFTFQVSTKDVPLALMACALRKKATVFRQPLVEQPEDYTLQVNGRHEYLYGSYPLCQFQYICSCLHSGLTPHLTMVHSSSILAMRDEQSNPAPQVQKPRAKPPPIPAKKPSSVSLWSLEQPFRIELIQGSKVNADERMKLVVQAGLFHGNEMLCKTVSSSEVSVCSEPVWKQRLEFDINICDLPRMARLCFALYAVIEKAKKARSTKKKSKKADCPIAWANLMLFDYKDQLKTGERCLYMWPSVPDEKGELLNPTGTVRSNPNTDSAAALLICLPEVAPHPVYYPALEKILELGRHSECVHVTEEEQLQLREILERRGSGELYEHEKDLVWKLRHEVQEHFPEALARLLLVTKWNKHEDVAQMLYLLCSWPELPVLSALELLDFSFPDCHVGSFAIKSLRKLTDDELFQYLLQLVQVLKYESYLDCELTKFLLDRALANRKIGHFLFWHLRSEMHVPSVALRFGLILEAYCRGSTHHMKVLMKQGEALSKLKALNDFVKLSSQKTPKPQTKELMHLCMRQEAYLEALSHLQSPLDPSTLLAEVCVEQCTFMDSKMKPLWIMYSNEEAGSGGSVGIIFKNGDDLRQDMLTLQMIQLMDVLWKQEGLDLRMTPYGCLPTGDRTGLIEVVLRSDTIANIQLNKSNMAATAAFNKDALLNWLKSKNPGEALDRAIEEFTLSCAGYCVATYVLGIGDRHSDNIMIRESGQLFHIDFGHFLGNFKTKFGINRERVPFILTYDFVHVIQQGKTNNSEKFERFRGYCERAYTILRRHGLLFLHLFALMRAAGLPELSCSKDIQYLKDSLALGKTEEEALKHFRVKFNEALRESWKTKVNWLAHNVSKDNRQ
Sequence (P27986 whole entry partner): as the sequence (P27986 whole entry partner) above
Assay: PI 3-Kinase (human) HTRF assay, PI3K δ
Format: biochemical
Details: read-out: PI3K δ IC50
pIC50: −log10 of the molar value.

Check out these entries, answers already filled in.
>  <Compound>
Nc1nc2cc(-c3ccc4ncc(N5CC(C(=O)N6CCOCC6)C5)nc4c3)ccc2o1 [Compound 252]

>  <System>
PI3K δ (Homo sapiens, UniProt O00329)

>  <Measured Quantity>
pIC50

>  <Assay Result>
> 5.00

$$$$
>  <Compound>
Nc1nc2cc(-c3ccc4ncc(-c5ccc(N6CCOCC6)nc5)nc4c3)ccc2o1

>  <System>
PI3K δ (Homo sapiens, UniProt O00329)

>  <Measured Quantity>
pIC50

>  <Assay Result>
< 5.00

$$$$
>  <Compound>
C[C@@H]1CN(C2CN(C(=O)c3cnc4ccc(-c5ccc6oc(N)nc6c5)cn34)C2)CCN1C

>  <System>
PI3K δ (Homo sapiens, UniProt O00329)

>  <Measured Quantity>
pIC50

>  <Assay Result>
> 6.00

$$$$

-- ask Return pIC50 for the following compound: Nc1nc2cc(-c3ccc4ncc(C(=O)N5CCC(N6CCC(F)(F)C6)C5)n4c3)ccc2o1 (stereo not shown)
-- reply > 5.00

----------
pIC50 overview
Target: PI3K β (p110β/p85α) (Homo sapiens, UniProt P42338)
Construct: purchased Upstate / Millipore Corporation
Experiment: PI 3-Kinase (human) HTRF assay, PI3K β
Type: biochemical
Settings: read-out: PI3K β IC50
pIC50: −log10 of the molar value.

-- ask Return pIC50 for the following molecule: CN1CCN(C(=O)C2CN(c3cnc4ccc(-c5ccc6oc(N)nc6c5)cc4n3)C2)CC1 [Compound 253]
-- reply > 5.00
